Test system: Leptosphaeria nodorum (LEPTNO)
experimental-protocol: In vitro fungitoxicity of hydrazones with and without copper towards Leptosphaeria nodorum (Example 26)
Type: cell-based
condition-description: Parastagonospora nodorum, 72 h, compound 0.05 μg/mL, copper-minus medium, 72 h at 25° C.; read-out: LEPTNO % Inhn. Minus Copper Observed
endpoint-label: inhibition of growth at 0.05 µg/mL (%)
Numeric only. Scale: %

Worked examples, 3 compounds total:
given-smiles	measured-on	inhibition of growth at 0.05 µg/mL [%]
O=C(N/N=C/c1cccc(Cl)c1O)c1ccccc1	Leptosphaeria nodorum (LEPTNO)	0
O=C(N/N=C/c1cc(Br)cc(Br)c1O)c1ccc2ccccc2c1	Leptosphaeria nodorum (LEPTNO)	16.8
O=C(N/N=C/c1cc(I)cc(I)c1O)c1ccc(Cl)cc1	Leptosphaeria nodorum (LEPTNO)	11.8

Provide inhibition of growth at 0.05 µg/mL, recorded with Leptosphaeria nodorum (LEPTNO), of `Cc1cc(C)cc(C(=O)N/N=C/c2ccccc2O)c1` 0

Answer with inhibition of growth at 0.05 µg/mL of `C/C(=N\NC(=O)c1ccc(C)cc1)c1cc(Br)ccc1O` measured for Leptosphaeria nodorum (LEPTNO). 0.4
